Every entry's value here was drawn from patent US9770446B2.

# IC50 measurements, system: GST-tagged Tankyrase-1 (1023-1327 aa) (Homo sapiens)
# Sequence (O95271 1023-1327): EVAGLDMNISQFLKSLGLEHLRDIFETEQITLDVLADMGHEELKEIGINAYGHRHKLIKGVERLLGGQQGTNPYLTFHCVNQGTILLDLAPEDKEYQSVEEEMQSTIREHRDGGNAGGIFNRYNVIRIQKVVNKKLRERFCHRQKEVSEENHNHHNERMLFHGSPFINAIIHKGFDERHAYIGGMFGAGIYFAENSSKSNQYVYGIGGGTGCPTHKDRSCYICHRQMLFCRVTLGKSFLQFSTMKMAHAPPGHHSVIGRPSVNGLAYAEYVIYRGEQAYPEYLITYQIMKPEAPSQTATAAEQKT

smiles_str	assay_system	IC50
COc1ccc(N(C)C(=O)N2CCC(C(=O)c3cccc(F)c3)CC2)cn1	GST-tagged Tankyrase-1 (1023-1327 aa) (Homo sapiens)	0.3 to 3 µM
COc1ccc(N(CCO)C(=O)N2CCC(C(=O)c3ccccc3)CC2)cc1	GST-tagged Tankyrase-1 (1023-1327 aa) (Homo sapiens)	0.3 to 3 µM
COc1ccc(N(C)C(=O)N2CCC(C(=O)c3cccc(OC)c3)CC2)cc1	GST-tagged Tankyrase-1 (1023-1327 aa) (Homo sapiens)	< 0.3 µM
Cc1ccc(C(=O)C2CCN(C(=O)N3CCc4ccccc43)CC2)cc1	GST-tagged Tankyrase-1 (1023-1327 aa) (Homo sapiens)	0.3 to 3 µM
COc1ccc(C(=O)C2CCN(C(=O)N(C)c3ccc(OC)nc3)CC2)cc1	GST-tagged Tankyrase-1 (1023-1327 aa) (Homo sapiens)	< 0.3 µM
O=C(c1ccc(Cl)cc1)C1CCN(C(=O)N2CCc3ccccc32)CC1	GST-tagged Tankyrase-1 (1023-1327 aa) (Homo sapiens)	0.3 to 3 µM
COc1ccc(N(C)C(=O)N2CCC(C(=O)c3ccc(OC)c(F)c3)CC2)cn1	GST-tagged Tankyrase-1 (1023-1327 aa) (Homo sapiens)	< 0.3 µM
COc1ccc(C(=O)C2CCN(C(=O)N(C)c3ccc(OC)cc3)CC2)cc1	GST-tagged Tankyrase-1 (1023-1327 aa) (Homo sapiens)	< 0.3 µM
CCN(C(=O)N1CCC(C(=O)c2cccc(C)c2)CC1)c1ccc(OC)cc1	GST-tagged Tankyrase-1 (1023-1327 aa) (Homo sapiens)	< 0.3 µM
CN(C(=O)N1CCC(C(=O)c2ccccc2)CC1)c1ccc(F)cc1	GST-tagged Tankyrase-1 (1023-1327 aa) (Homo sapiens)	0.3 to 3 µM
O=C(c1ccc(F)cc1)C1CCN(C(=O)N2CCc3ccccc32)CC1	GST-tagged Tankyrase-1 (1023-1327 aa) (Homo sapiens)	0.3 to 3 µM
COc1ccc(N(C)C(=O)N2CCC(C(=O)c3ccc(F)cc3)CC2)cn1	GST-tagged Tankyrase-1 (1023-1327 aa) (Homo sapiens)	0.3 to 3 µM
O=C(c1ccccc1)C1CCN(C(=O)N2CCCc3ccccc32)CC1	GST-tagged Tankyrase-1 (1023-1327 aa) (Homo sapiens)	3 to 50 µM
COc1ccc(N(C)C(=O)N2CCC(C(=O)c3ccccc3)CC2)cc1	GST-tagged Tankyrase-1 (1023-1327 aa) (Homo sapiens)	0.3 to 3 µM
COc1cccc(N(C)C(=O)N2CCC(C(=O)c3ccccc3)CC2)c1	GST-tagged Tankyrase-1 (1023-1327 aa) (Homo sapiens)	0.3 to 3 µM
CN(C(=O)N1CCC(C(=O)c2ccccc2)CC1)c1cccc(C#N)c1	GST-tagged Tankyrase-1 (1023-1327 aa) (Homo sapiens)	0.3 to 3 µM
CCN(C(=O)N1CCC(C(=O)c2ccc(OC)c(C)c2)CC1)c1ccc(OC)cc1	GST-tagged Tankyrase-1 (1023-1327 aa) (Homo sapiens)	< 0.3 µM
COc1ccc(N(C)C(=O)N2CCC(C(=O)c3ccc(C)cc3)CC2)cn1	GST-tagged Tankyrase-1 (1023-1327 aa) (Homo sapiens)	0.3 to 3 µM
COc1ccc(N(C)C(=O)N2CCC(C(=O)c3cccc(C)c3)CC2)cn1	GST-tagged Tankyrase-1 (1023-1327 aa) (Homo sapiens)	0.3 to 3 µM
CN(C(=O)N1CCC(C(=O)c2ccc(NS(C)(=O)=O)cc2)CC1)c1ccccc1	GST-tagged Tankyrase-1 (1023-1327 aa) (Homo sapiens)	< 0.3 µM
Cc1ccc(N(C)C(=O)N2CCC(C(=O)c3ccccc3)CC2)cc1	GST-tagged Tankyrase-1 (1023-1327 aa) (Homo sapiens)	0.3 to 3 µM
CCN(C(=O)N1CCC(C(=O)c2ccccc2)CC1)c1ccc(OC)cc1	GST-tagged Tankyrase-1 (1023-1327 aa) (Homo sapiens)	< 0.3 µM
CN(C(=O)N1CCC(C(=O)c2ccccc2)CC1)c1cccc(F)c1	GST-tagged Tankyrase-1 (1023-1327 aa) (Homo sapiens)	0.3 to 3 µM
O=C(c1cccc(F)c1)C1CCN(C(=O)N2CCc3ccccc32)CC1	GST-tagged Tankyrase-1 (1023-1327 aa) (Homo sapiens)	0.3 to 3 µM
COc1ccc(C(=O)C2CCN(C(=O)N3CCc4ccccc43)CC2)cc1	GST-tagged Tankyrase-1 (1023-1327 aa) (Homo sapiens)	0.3 to 3 µM
COc1ccc(N(C)C(=O)N2CCC(C(=O)c3cccc(F)c3)CC2)cc1	GST-tagged Tankyrase-1 (1023-1327 aa) (Homo sapiens)	0.3 to 3 µM
Cc1cccc(N(C)C(=O)N2CCC(C(=O)c3ccccc3)CC2)c1	GST-tagged Tankyrase-1 (1023-1327 aa) (Homo sapiens)	0.3 to 3 µM
O=C(c1ccccc1)C1CCN(C(=O)N2CCc3ccccc32)CC1	GST-tagged Tankyrase-1 (1023-1327 aa) (Homo sapiens)	0.3 to 3 µM
COc1ccc(N(C)C(=O)N2CCC(C(=O)c3ccc(OC)c(C)c3)CC2)cc1	GST-tagged Tankyrase-1 (1023-1327 aa) (Homo sapiens)	< 0.3 µM
COc1ccc(N(C)C(=O)N2CCC(C(=O)c3ccc(F)cc3)CC2)cc1	GST-tagged Tankyrase-1 (1023-1327 aa) (Homo sapiens)	0.3 to 3 µM
COc1cccc(C(=O)C2CCN(C(=O)N(C)c3ccc(OC)nc3)CC2)c1	GST-tagged Tankyrase-1 (1023-1327 aa) (Homo sapiens)	0.3 to 3 µM
COc1ccc(N(C)C(=O)N2CCC(C(=O)c3cccc(C)c3)CC2)cc1	GST-tagged Tankyrase-1 (1023-1327 aa) (Homo sapiens)	< 0.3 µM
COc1ccc(N(C)C(=O)N2CCC(C(=O)c3ccc(Cl)cc3)CC2)cc1	GST-tagged Tankyrase-1 (1023-1327 aa) (Homo sapiens)	< 0.3 µM
COc1ccc(N(C)C(=O)N2CCC(C(=O)c3ccc(C)cc3)CC2)cc1	GST-tagged Tankyrase-1 (1023-1327 aa) (Homo sapiens)	< 0.3 µM
CCOC(=O)CN(C(=O)N1CCC(C(=O)c2ccc(OC)cc2)CC1)c1ccccc1	GST-tagged Tankyrase-1 (1023-1327 aa) (Homo sapiens)	< 0.3 µM
CN(C(=O)N1CCC(C(=O)c2ccccc2)CC1)c1ccc(C#N)cc1	GST-tagged Tankyrase-1 (1023-1327 aa) (Homo sapiens)	0.3 to 3 µM
CCN(C(=O)N1CCC(C(=O)c2cccc(OC)c2)CC1)c1ccc(OC)cc1	GST-tagged Tankyrase-1 (1023-1327 aa) (Homo sapiens)	< 0.3 µM
